Below is a list of entries, each paired with its recorded %Inh value.
# Test system: CAMK2B;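 note: KINOMEscan kinase panel screen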
# experimental_conditions: concentration: 1 μM, replicates: in singlicate; n = 1

molecule: COc1ccc(CSc2nnc(-c3ccc4nccn4c3)o2)cc1C(F)(F)F
%Inh (%): 32
--
molecule: Nc1cccc(-c2ccc3c(N)n[nH]c3c2)n1
%Inh (%): 0
--
molecule: Cn1cncc1-c1cc2c(Nc3ccc(OCc4ccccc4)cc3)ncnc2cn1
%Inh (%): 0
--
molecule: COc1cccc(C2=C(Nc3cc(Cl)c(O)c(Cl)c3)C(=O)NC2=O)c1
%Inh (%): 0
--
molecule: Cc1ccccc1-c1cc(-c2c[nH]nc2-c2ccccn2)ccn1
%Inh (%): 0
--
molecule: CNc1cc(-c2ccc3c(N)n[nH]c3c2)nc(N)n1
%Inh (%): 13
--
molecule: Cc1ccccc1Cn1ccn2c(=O)cc(N3CCOCC3)nc12
%Inh (%): 0
--
molecule: Cc1c(Cn2c3ccccc3n3c(=O)cc(N4CCOCC4)nc23)cccc1C(F)(F)F
%Inh (%): 0
--
molecule: COc1ccc(-c2coc3ccc(-c4nnc(C)o4)cc23)cc1
%Inh (%): 0
--
molecule: O=C1NC(=O)C(c2ccc(Cl)cc2)=C1Nc1cccc(Cl)c1
%Inh (%): 0
--
molecule: O=c1cc(N2CCOCC2)nc2n(Cc3cccc(Cl)c3Cl)c3ccccc3n12
%Inh (%): 0
--
molecule: CCn1c(-c2ccccc2)nc2cnccc21
%Inh (%): 0
--
molecule: COC(=O)c1cccc(NC(=O)NC2CCN(c3ccnc(Nc4ccc(F)cc4)n3)C2)c1 (stereo not drawn)
%Inh (%): 0
--
molecule: Cc1ccc(NC(=O)c2ccc(Cl)cc2)cc1-c1ccc(C(=O)Nc2ccncc2)cc1
%Inh (%): 86
--
molecule: CC(C)c1ccc(O)cc1Nc1ccnc2ccc(C(F)(F)F)cc12
%Inh (%): 0
--
molecule: CNc1nc(-c2ccc3c(N)n[nH]c3c2)cc(N2C[C@@H](C(=O)NC3CCCCC3)OC[C@H]2C)n1
%Inh (%): 0
--
molecule: O=C(Nc1n[nH]c2nc(-c3cccs3)c(Br)cc12)C1CCCC1
%Inh (%): 12
--
molecule: CCCCc1nn2ncccc2c1-c1ccnc(NC2CC2)n1
%Inh (%): 0
--
molecule: O=c1cc(N2CCOCC2)nc2n(Cc3ccccc3F)ccn12
%Inh (%): 0
--
molecule: CS(=O)(=O)CCNCc1nc(-c2ccc3ncnc(Nc4ccc5c(cnn5Cc5ccccc5)c4)c3c2)cs1.Cl.Cl
%Inh (%): 0
--
molecule: Cc1cccc2c(-c3ccncn3)c(-c3ccc(F)cc3)nn12
%Inh (%): 0
--
molecule: CCn1c(-c2c(N)noc2C)nc2cnccc21
%Inh (%): 0
--
molecule: c1ccc(-c2ccnc3[nH]ccc23)cc1
%Inh (%): 15
--
molecule: COc1ccc(CSc2nnc(-c3ccc4c(c3)CCO4)o2)cc1
%Inh (%): 0
--
molecule: COc1ccc(Nc2nccc(-c3ccc(NC(=O)c4cc5cc(F)ccc5[nH]4)cc3)n2)cc1
%Inh (%): 0
--
molecule: Fc1ccc(-c2nc3n(c2-c2ccncc2)CCS3)cc1
%Inh (%): 0
--
molecule: NS(=O)(=O)c1cccc(N/C=C2\C(=O)Nc3ccc(S(=O)(=O)Cc4c(Cl)cccc4Cl)cc32)c1
%Inh (%): 0
--
molecule: CNC(=O)c1ccc(C)c(-n2c(C)cc(OCc3ccc(F)cc3F)c(Br)c2=O)c1
%Inh (%): 0
--
molecule: CC[C@@H]1CO[C@H](C(=O)Nc2ccccc2)CN1c1cc(-c2ccc3c(N)n[nH]c3c2)nc(NC)n1
%Inh (%): 0
--
molecule: CCc1ccc(-c2ccc3c(c2)-c2n[nH]cc2S(=O)(=O)N3C)cc1
%Inh (%): 0
--
molecule: Nc1nccc(-c2c(-c3ccc(F)cc3)ncn2C2CCN(Cc3ccccc3)CC2)n1
%Inh (%): 0
--
molecule: O=C(Nc1n[nH]c2cc(-c3ccsc3)ccc12)C1CC1
%Inh (%): 11
--
molecule: Cc1ccc(NC(=O)Nc2ccccc2)cc1-c1ccc(C(=O)Nc2ccncc2)cc1
%Inh (%): 0
--
molecule: Cc1c(Cn2c(C)c(C)n3c(=O)cc(N4CCOCC4)nc23)cccc1C(F)(F)F
%Inh (%): 0
--
molecule: COc1ccc(Nc2nccc(NCCNC(=O)Nc3cc(C)ccc3C)n2)cc1
%Inh (%): 0
--
molecule: CC(=O)c1c(C)c2cnc(Nc3ccn(C)n3)nc2n(C2CCCC2)c1=O
%Inh (%): 0
--
molecule: Nc1ncnc2occ(-c3ccc4c(c3)CCN4C(=O)Cc3cc(F)ccc3F)c12
%Inh (%): 0
--
molecule: COc1cc2ncnc(Nc3cccc(Br)c3)c2cc1OC.Cl
%Inh (%): 0
--
molecule: COc1nccc(-c2c(-c3ccc(F)cc3)ncn2CCCN2CCOCC2)n1
%Inh (%): 0

Hello, the source for this data is paper PMC5540273, in case you need it.
